target.desc: Human SIRPα v2 (antigen of the Octet and Biacore affinity measurements) (human) (UniProt P78324)
test.summary: SPR (Biacore), 1:1 binding model
pKd: −log10 of the molar value.
readout.type: pKd

binder	readout.type	number
hu025.021 (antibody, V domains shown) VH: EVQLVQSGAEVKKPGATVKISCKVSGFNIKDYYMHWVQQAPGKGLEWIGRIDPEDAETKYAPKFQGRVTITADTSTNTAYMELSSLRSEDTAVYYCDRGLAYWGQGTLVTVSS VL: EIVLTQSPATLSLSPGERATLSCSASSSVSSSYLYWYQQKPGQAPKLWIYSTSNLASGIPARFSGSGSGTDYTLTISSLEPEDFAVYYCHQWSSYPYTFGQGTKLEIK	pKd	8.47
hu025.060 (antibody, V domains shown) VH: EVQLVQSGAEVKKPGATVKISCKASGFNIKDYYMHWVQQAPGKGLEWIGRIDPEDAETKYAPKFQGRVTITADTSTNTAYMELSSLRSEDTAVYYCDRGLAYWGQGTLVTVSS VL: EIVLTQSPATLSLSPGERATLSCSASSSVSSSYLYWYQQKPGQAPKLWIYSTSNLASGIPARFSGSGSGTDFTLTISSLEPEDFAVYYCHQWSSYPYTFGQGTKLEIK	pKd	8.63
hu025.059 (antibody, V domains shown) VH: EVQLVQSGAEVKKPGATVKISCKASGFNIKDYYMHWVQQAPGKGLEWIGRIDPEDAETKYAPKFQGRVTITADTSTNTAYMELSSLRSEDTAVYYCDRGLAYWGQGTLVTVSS VL: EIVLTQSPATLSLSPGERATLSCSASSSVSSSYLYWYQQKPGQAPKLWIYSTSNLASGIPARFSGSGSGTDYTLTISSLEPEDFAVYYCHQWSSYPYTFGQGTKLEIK	pKd	8.56
hu025.023 (antibody, V domains shown) VH: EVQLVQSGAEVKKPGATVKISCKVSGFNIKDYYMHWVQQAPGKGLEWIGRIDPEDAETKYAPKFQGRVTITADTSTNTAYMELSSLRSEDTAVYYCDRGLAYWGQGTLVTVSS VL: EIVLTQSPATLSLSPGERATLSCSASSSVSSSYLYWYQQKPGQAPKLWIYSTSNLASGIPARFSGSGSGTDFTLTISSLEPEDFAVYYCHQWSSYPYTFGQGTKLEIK	pKd	8.56

The origin of these recorded values is patent US20250270315A1.
